- SYSTEM NAME: α4β1 integrin (Homo sapiens, UniProt P05556+P13612)
- Construct: monitoring the capture of α4β1 expressing cells; endogenous in cells; host or cells: Jurkat
- Sequence (P13612 34-1032): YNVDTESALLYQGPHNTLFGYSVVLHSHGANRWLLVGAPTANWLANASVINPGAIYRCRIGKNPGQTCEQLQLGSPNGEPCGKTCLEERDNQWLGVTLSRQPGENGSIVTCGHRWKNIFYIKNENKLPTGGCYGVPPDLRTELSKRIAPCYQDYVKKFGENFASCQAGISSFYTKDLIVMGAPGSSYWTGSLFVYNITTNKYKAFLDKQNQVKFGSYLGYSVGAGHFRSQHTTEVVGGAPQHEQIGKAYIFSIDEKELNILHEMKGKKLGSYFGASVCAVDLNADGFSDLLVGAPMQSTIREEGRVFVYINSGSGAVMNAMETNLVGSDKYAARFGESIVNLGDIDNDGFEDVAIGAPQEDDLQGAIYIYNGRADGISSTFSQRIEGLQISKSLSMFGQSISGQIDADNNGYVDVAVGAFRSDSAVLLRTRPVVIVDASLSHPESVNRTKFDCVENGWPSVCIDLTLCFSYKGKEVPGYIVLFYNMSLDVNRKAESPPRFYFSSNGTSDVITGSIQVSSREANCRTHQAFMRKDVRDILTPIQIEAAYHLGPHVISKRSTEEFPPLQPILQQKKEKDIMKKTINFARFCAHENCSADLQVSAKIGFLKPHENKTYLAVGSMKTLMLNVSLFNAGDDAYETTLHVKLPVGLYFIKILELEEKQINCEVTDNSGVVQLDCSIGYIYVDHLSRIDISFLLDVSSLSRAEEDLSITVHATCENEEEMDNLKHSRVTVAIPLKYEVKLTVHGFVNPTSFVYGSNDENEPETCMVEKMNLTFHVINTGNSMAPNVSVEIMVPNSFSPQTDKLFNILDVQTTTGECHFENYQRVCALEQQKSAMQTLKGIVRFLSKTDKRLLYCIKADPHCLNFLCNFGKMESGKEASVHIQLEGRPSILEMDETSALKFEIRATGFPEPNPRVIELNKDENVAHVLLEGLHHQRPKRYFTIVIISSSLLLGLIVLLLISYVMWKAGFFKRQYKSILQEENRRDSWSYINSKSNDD
- Sequence (P05556 21-798): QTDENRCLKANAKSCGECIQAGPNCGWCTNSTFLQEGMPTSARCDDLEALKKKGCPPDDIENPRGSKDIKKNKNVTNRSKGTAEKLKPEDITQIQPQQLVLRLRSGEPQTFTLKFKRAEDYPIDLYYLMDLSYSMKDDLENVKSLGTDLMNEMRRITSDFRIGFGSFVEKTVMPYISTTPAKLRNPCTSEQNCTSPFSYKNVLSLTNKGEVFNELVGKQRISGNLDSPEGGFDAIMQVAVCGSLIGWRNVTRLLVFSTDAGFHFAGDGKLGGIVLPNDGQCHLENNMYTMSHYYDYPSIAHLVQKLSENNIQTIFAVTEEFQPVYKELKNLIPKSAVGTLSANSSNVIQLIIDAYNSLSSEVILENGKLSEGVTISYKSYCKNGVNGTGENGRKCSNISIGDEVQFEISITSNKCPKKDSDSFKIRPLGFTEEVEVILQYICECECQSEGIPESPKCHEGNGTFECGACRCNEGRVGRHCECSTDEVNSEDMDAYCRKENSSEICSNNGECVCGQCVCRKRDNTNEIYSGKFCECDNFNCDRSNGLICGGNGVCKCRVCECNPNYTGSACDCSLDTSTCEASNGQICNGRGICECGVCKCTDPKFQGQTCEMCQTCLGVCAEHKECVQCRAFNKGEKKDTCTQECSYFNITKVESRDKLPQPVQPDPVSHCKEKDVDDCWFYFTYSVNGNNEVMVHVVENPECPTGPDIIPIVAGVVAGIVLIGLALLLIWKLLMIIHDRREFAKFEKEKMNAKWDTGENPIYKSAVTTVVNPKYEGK
- ASSAY EXPLANATION: α4β1 Cell Capture Assay
- Type: cell-based
- ASSAY SETUP: capture of α4β1 expressing Jurkat cells on VCAM-1 extracellular domain-coated plate; Table 2
Classify: t when EC50 is strictly less than 0.03 µM; f when EC50 is not.

I wonder whether Cc1cc(N2CCOC[C@@H]2C(F)(F)F)cc(F)c1C(=O)N[C@@H](Cc1ccc(-n2c(=O)c3ccncc3n(C)c2=O)c(OC(F)(F)F)c1)C(=O)O (atropisomer, axis not shown) [Example 93] has EC50 below 0.03 µM. Can you tell?
t

I wonder whether Cc1cc(N2CCOC[C@@H]2C(F)(F)F)cc(F)c1C(=O)N[C@@H](Cc1ccc(-n2c(=O)c3cc(C#N)ccc3n(C)c2=O)nc1)C(=O)O has EC50 below 0.03 µM. Can you tell?
t

I wonder whether CC[C@@H](Nc1cc(F)c(C(=O)N[C@@H](Cc2ccc(-n3c(=O)cc(C)n(C)c3=O)nc2)C(=O)O)c(F)c1)C(F)(F)F has EC50 below 0.03 µM. Can you tell?
f

I wonder whether CC[C@@H](Nc1cc(F)c(C(=O)N[C@@H](Cc2ccc(-c3c(C)c4cc(F)ccc4n(C)c3=O)cc2)C(=O)O)c(F)c1)C(F)(F)F has EC50 below 0.03 µM. Can you tell?
f

I wonder whether Cn1c(=O)n(-c2c(F)cc(C[C@H](NC(=O)c3c(F)cc(N4CCOC[C@@H]4C(F)(F)F)cc3F)C(=O)O)cc2F)c(=O)c2ccncc21 has EC50 below 0.03 µM. Can you tell?
t

I wonder whether Cc1cc(C[C@H](NC(=O)c2c(F)cc(N3CCOC[C@@H]3C(F)(F)F)cc2F)C(=O)O)ccc1-c1c(C(F)(F)F)cc(C)n(C)c1=O has EC50 below 0.03 µM. Can you tell?
t
